# Tgt: human mGlu5a receptor (Homo sapiens, UniProt P41594)
# Sequence (P41594 21-1180 isoform P41594-2 limits assumed): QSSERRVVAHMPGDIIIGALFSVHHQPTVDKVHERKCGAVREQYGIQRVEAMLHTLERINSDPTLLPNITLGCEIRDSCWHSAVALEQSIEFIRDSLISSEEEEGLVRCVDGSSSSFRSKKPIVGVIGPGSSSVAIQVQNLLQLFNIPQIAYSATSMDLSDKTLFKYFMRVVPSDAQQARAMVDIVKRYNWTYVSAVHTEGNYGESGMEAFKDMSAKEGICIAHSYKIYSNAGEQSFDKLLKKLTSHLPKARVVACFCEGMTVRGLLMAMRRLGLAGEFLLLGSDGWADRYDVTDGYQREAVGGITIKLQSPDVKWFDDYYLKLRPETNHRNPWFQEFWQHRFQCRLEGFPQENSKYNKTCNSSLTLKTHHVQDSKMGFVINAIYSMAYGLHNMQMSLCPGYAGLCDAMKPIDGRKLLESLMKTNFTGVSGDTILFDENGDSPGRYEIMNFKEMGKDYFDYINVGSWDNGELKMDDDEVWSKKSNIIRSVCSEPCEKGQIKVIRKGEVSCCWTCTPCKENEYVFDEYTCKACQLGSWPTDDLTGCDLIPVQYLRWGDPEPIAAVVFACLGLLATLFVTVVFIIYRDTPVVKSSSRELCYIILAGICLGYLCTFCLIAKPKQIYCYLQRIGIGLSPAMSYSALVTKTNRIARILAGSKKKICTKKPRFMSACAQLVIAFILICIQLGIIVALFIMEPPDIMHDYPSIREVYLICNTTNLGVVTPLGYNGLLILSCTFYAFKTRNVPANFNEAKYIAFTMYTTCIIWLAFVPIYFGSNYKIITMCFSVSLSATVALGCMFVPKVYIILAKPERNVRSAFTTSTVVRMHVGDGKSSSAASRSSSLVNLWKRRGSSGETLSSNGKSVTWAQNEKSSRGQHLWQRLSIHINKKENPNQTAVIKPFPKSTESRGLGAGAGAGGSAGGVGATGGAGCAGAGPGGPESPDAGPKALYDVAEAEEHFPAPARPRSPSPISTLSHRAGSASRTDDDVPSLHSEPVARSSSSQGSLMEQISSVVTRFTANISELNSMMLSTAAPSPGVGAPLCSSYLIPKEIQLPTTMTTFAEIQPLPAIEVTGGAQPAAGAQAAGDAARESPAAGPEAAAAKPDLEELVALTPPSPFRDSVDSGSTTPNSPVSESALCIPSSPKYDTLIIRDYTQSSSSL
# Measurement description: Intracellular Ca2+ mobilization assay (mGlu5 PAM)
# Type: cell-based
# Design: expressed in transfected cells
# Reported conditions: HEK-293 cells stably expressing human mGlu5a; L-glutamate added at EC20; read-out: EC50 (nM) mGlu5PAM
# Description: A monoclonal HEK-293 cell line stably transfected with a cDNA encoding for the human mGlu5a receptor was generated; for the work with mGlu5 Positive Allosteric Modulators (PAMs), a cell line with low receptor expression levels and low constitutive receptor activity was selected to allow the differentiation of agonistic versus PAM activity. […]
Output 1 (yes) for records whose EC50 is lower than 30 nM, 0 (no) for records at or above 30 nM.

Answered cases to consult:
molecule=CC1(C)CC(=O)N(c2ccc(C#Cc3cccc(F)c3)cn2)N1 tgt="human mGlu5a receptor (Homo sapiens, UniProt P41594)" discrete_label="1 (yes)"
molecule=CN1N(c2ncc(C#Cc3cc(F)ccc3F)cn2)C(=O)CC1(C)C tgt="human mGlu5a receptor (Homo sapiens, UniProt P41594)" discrete_label="0 (no)"
molecule="O=C1CC2CCCN2N1c1ncc(C#Cc2cccc(F)c2)cn1 (racemic)" tgt="human mGlu5a receptor (Homo sapiens, UniProt P41594)" discrete_label="1 (yes)"
molecule="CCN1C(C(C)C)CC(=O)N1c1ccc(C#Cc2ccccc2)cn1 (racemic)" tgt="human mGlu5a receptor (Homo sapiens, UniProt P41594)" discrete_label="0 (no)"
molecule=CN1N(c2ncc(C#Cc3cccc(F)c3)cn2)C(=O)CC1(C)C tgt="human mGlu5a receptor (Homo sapiens, UniProt P41594)" discrete_label="0 (no)"

For O=C1CC2CCCN2N1c1ncc(C#Cc2ccc(F)cc2)cn1 (racemic) , is the recorded EC50 below the cut-off of 30 nM?
0 (no)

For CN1N(c2ncc(C#Cc3ccccc3)cn2)C(=O)CC1(C)C , is the recorded EC50 below the cut-off of 30 nM?
0 (no)

For CC(C)C1CC(=O)N(c2ccc(C#Cc3ccccc3)cn2)N1 (racemic) , is the recorded EC50 below the cut-off of 30 nM?
1 (yes)

For CC1(C(F)(F)F)CC(=O)N(c2ccc(C#Cc3ccccc3)cn2)N1 (racemic) , is the recorded EC50 below the cut-off of 30 nM?
0 (no)

----------
# Tgt: human mGlu5a receptor (Homo sapiens)
Measurement name: Ki

Provide Ki, system human mGlu5a receptor (Homo sapiens), entry CC1(C)CC(=O)N(c2ccc(C#Cc3cc(F)ccc3F)cn2)N1 [Example 20]
69.7 nM

----------
In this section we review reported log10 EC50 values for a set of molecules.
# Tgt: human mGlu5a receptor (Homo sapiens)
# Measurement description: Intracellular Ca2+ mobilization assay (mGlu5 PAM)
# Type: cell-based
# Parameters: expressed in transfected cells
# Reported conditions: HEK-293 cells stably expressing human mGlu5a; L-glutamate added at EC20; read-out: EC50 (nM) mGlu5PAM
All values: log10 EC50 [nM].

Worked set:
molecule=CC1(C)CC(=O)N(c2ncc(C#Cc3ccccc3)cn2)N1 result_value=1.66
molecule="O=C1CC2CCCN2N1c1ccc(C#Cc2ccccc2)cn1 (racemic)" result_value=1.54
molecule=CC1(C)CC(=O)N(c2ccc(C#Cc3ccccc3)cn2)N1 result_value=0.85
molecule=CC1(C)CC(=O)N(c2ccc(C#Cc3cc(F)ccc3F)nn2)N1 result_value=1.93

Indicate the recorded log10 EC50 value for this molecule: Cc1cccc(C#Cc2ccc(N3C(=O)CC(C)(C)N3C)nc2)c1
1.86

Indicate the recorded log10 EC50 value for this molecule: CC1(C)CC(=O)N(c2ccc(C#Cc3ccc(F)cc3)cn2)N1
1.11

Indicate the recorded log10 EC50 value for this molecule: CN1N(c2ccc(C#Cc3cccc(F)c3)cn2)C(=O)CC1(C)C
1.56

Indicate the recorded log10 EC50 value for this molecule: CN1N(c2ccc(C#Cc3ccccc3)cn2)C(=O)CC1(C)C
1.48

Indicate the recorded log10 EC50 value for this molecule: CN1N(c2ncc(C#Cc3ccc(F)cc3)cn2)C(=O)CC1(C)C
1.75

Indicate the recorded log10 EC50 value for this molecule: O=C1CC2CCCN2N1c1ncc(C#Cc2ccccc2)cn1 (racemic)
1.78

Indicate the recorded log10 EC50 value for this molecule: CN1N(c2ccc(C#Cc3cccc(Cl)c3)cn2)C(=O)CC1(C)C
1.95
